Target: PTPN2 (HiBIT-PTPN2 in 293T.109 cells) (Homo sapiens, UniProt P17706)
Construct: expressed in transfected cells; host or cells: 293T.109 (293T WT from ATCC)
Sequence (P17706 1-415): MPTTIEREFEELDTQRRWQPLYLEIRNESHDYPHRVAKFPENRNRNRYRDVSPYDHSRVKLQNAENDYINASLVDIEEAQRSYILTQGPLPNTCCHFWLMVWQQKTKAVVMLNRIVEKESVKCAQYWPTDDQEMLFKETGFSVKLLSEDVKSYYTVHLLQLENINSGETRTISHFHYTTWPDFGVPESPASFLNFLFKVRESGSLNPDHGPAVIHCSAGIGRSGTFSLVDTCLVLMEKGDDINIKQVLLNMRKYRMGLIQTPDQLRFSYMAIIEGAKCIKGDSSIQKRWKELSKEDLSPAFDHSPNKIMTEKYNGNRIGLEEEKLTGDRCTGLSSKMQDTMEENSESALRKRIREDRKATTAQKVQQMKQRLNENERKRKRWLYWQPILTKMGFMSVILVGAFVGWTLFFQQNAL
Assay: HiBiT Degradation 293T.109 PTPN2 (Nano-Glo HiBiT Lytic Assay)
Format: cell-based
Conditions: 24.0 hours
Reported DC50 values are given for each entry in this list.

Some molecules with known DC50 results, for comparison:
# Molecule, Assayed target, Experimental value
records = [
    ("CC1(C)CC(Nc2cccc(-c3sc(C(=O)O)c(OCC(=O)O)c3Cl)c2F)CCN1S(=O)(=O)Cc1ccc(F)c(NC(=O)C2CN(C(=O)CNc3cccc4c3CN(C3CCC(=O)NC3=O)C4=O)C2)c1 (stereo not drawn)", "PTPN2 (HiBIT-PTPN2 in 293T.109 cells) (Homo sapiens, UniProt P17706)", "< 0.05 µM"),
    ("CC1(C)C[C@@H](Nc2cccc(-c3sc(C(=O)O)c(OCC(=O)O)c3Cl)c2)CCN1S(=O)(=O)Cc1cccc(NC(=O)CN2CCC(n3c(=O)n(C4CCC(=O)NC4=O)c4ccccc43)CC2)c1 (stereo partly drawn)", "PTPN2 (HiBIT-PTPN2 in 293T.109 cells) (Homo sapiens, UniProt P17706)", "0.2 to 1 µM"),
]

For the next question, use this molecule.
The molecule listed as Cn1c(=O)n(C2CCC(=O)NC2=O)c2ccc(C3CCCN(C(=O)Nc4cccc(CS(=O)(=O)N5CC[C@H](Nc6cccc(-c7sc(C(=O)O)c(OCC(=O)O)c7Cl)c6)CC5(C)C)c4)C3)cc21 (stereo partly drawn) has a reported DC50 of 0.2 to 1 µM

----------
Biological target: PTPN2 (B16F10.4 cells) (Mus musculus, UniProt Q06180)
Construct: HiBiT; host or cells: B16F10.4
Sequence (Q06180 whole entry): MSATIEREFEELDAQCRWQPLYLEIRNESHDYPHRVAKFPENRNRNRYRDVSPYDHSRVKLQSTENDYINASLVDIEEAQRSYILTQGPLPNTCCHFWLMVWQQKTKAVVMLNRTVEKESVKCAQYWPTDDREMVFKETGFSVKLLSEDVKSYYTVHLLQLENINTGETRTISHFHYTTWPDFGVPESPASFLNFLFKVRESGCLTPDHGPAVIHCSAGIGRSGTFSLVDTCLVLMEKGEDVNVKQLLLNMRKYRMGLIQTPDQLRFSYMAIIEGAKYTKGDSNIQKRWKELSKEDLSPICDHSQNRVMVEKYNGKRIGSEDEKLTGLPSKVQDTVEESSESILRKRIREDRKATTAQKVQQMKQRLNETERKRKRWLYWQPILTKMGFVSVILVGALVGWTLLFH
Experiment: HiBiT Degradation B16F10.4 PTPN2
Assay type: cell-based
Conditions: 24.0 hours
Quantity measured: DC50

Some molecules with known DC50 results, for comparison:
# Molecule, Assayed target, DC50
data = [
    ("Cn1c(=O)n(C2CCC(=O)NC2=O)c2ccc(OC3CN(C(=O)Nc4cccc(CS(=O)(=O)N5CC[C@H](Nc6cccc(-c7sc(C(=O)O)c(OCC(=O)O)c7Cl)c6)CC5(C)C)c4)C3)cc21 (some centres unmarked) [Example 116]", "PTPN2 (B16F10.4 cells) (Mus musculus, UniProt Q06180)", "50 to 200 nM"),
    ("Cn1c(=O)n(C2CCC(=O)NC2=O)c2ccc([C@H]3CC[C@@H](C(=O)Nc4cccc(CS(=O)(=O)N5CC[C@H](Nc6cccc(-c7sc(C(=O)O)c(OCC(=O)O)c7Cl)c6)CC5(C)C)c4)CC3)cc21 (some centres unmarked) [Example 139]", "PTPN2 (B16F10.4 cells) (Mus musculus, UniProt Q06180)", "50 to 200 nM"),
    ("CCn1nc(C2CCC(=O)NC2=O)c2ccc(C3CCN(C(=O)Nc4cccc(CS(=O)(=O)N5CC[C@H](Nc6cccc(-c7sc(C(=O)O)c(OCC(=O)O)c7Cl)c6)CC5(C)C)c4)CC3(F)F)cc21 (some centres unmarked) [Example 200]", "PTPN2 (B16F10.4 cells) (Mus musculus, UniProt Q06180)", "50 to 200 nM"),
    ("CC1(C)C[C@@H](Nc2cccc(-c3sc(C(=O)O)c(OCC(=O)O)c3Cl)c2)CCN1S(=O)(=O)Cc1cccc(NC(=O)N2CCC(c3ccc4c(ccn4C4CCC(=O)NC4=O)c3)CC2)c1 (some centres unmarked) [Example 196]", "PTPN2 (B16F10.4 cells) (Mus musculus, UniProt Q06180)", "200 to 1000 nM"),
]

For the next question, use this molecule.
The molecule listed as Cn1c(=O)n(C2CCC(=O)NC2=O)c2ccc(C3CN(C(=O)Nc4cccc(CS(=O)(=O)N5CC[C@H](Nc6cccc(-c7sc(C(=O)O)c(OCC(=O)O)c7Cl)c6)CC5(C)C)c4)C3)cc21 (some centres unmarked) [Example 106] has a reported DC50 of 50 to 200 nM

----------
Reported DC50 values are given for each entry in this list.
Target: PTPN2 (HiBIT-PTPN2 in 293T.109 cells) (Homo sapiens, UniProt P17706)
Construct: expressed in transfected cells; host or cells: 293T.109 (293T WT from ATCC)
Assay: HiBiT Degradation 293T.109 PTPN2 (Nano-Glo HiBiT Lytic Assay)
Assay type: cell-based
Settings: 24.0 hours

# Compound, Experimental value
measured = [
    ("Cn1c(=O)n([C@H]2CCC(=O)NC2=O)c2ccc([C@@H]3CCN(C(=O)Nc4cccc(CS(=O)(=O)N5CC[C@H](Nc6cccc(-c7sc(C(=O)O)c(OCC(=O)O)c7Cl)c6)CC5(C)C)c4)CC3(F)F)cc21 (single isomer, unassigned) [Example 169a]", "< 50 nM"),
    ("CC1(C)C[C@@H](Nc2cccc(-c3sc(C(=O)O)c(OCC(=O)O)c3Cl)c2)CCN1S(=O)(=O)Cc1cccc(NC(=O)N2CCC(c3ccc4c(ccn4C4CCC(=O)NC4=O)c3)CC2)c1 (stereo partly drawn)", "200 to 1000 nM"),
    ("O=C(O)COc1c(C(=O)O)sc(-c2cccc(NC3CCN(S(=O)(=O)C(c4ccccc4)c4cccc(NC(=O)CNc5ccc6c(c5)C(=O)N(C5CCC(=O)NC5=O)C6=O)c4)CC3)c2)c1Cl (stereo not drawn)", "200 to 1000 nM"),
]

The compound listed as Cn1c(=O)n(C2CCC(=O)NC2=O)c2ccc(OC3CN(C(=O)Nc4cccc(CS(=O)(=O)N5CC[C@H](Nc6cccc(-c7sc(C(=O)O)c(OCC(=O)O)c7Cl)c6)CC5(C)C)c4)C3)cc21 (stereo partly drawn) has a reported DC50 of 50 to 200 nM

The compound listed as CC1(C)C[C@@H](Nc2cccc(-c3sc(C(=O)O)c(OCC(=O)O)c3Cl)c2)CCN1S(=O)(=O)Cc1cccc(NC(=O)CCCCCCNC(=O)CNc2cccc3c2CN(C2CCC(=O)NC2=O)C3=O)c1 (stereo partly drawn) has a reported DC50 of 200 to 1000 nM

The compound listed as CC1(C)C[C@@H](Nc2cccc(-c3sc(C(=O)O)c(OCC(=O)O)c3Cl)c2)CCN1S(=O)(=O)Cc1cccc(NC(=O)C2CN(C(=O)CNc3cccc4c3CN([C@@H]3CCC(=O)NC3=O)C4=O)C2)c1 (single isomer, unassigned) [Example 44a] has a reported DC50 of < 50 nM

The compound listed as CC1(C)C[C@@H](Nc2cccc(-c3sc(C(=O)O)c(OCC(=O)O)c3Cl)c2)CCN1S(=O)(=O)Cc1cc(NC(=O)N2CCC(c3ccc4c5c(cccc35)C(=O)N4C3CCC(=O)NC3=O)CC2)ccc1F (stereo partly drawn) has a reported DC50 of 50 to 200 nM

The compound listed as O=C(O)COc1c(C(=O)O)sc(-c2cccc(NC3CCN(S(=O)(=O)Cc4cccc(NC(=O)C5CCN(C(=O)CNc6cccc7c6CN(C6CCC(=O)NC6=O)C7=O)CC5)c4F)CC3)c2)c1Cl (stereo not drawn) has a reported DC50 of 50 to 200 nM

The compound listed as CC(C)n1c(=O)n(C2CCC(=O)NC2=O)c2ccc(C3CCN(C(=O)Nc4cccc(CS(=O)(=O)N5CC[C@H](Nc6cccc(-c7sc(C(=O)O)c(OCC(=O)O)c7Cl)c6)CC5(C)C)c4)CC3(F)F)cc21 (stereo partly drawn) has a reported DC50 of < 50 nM

----------
Reported DC50 values are given for each entry in this list.
Molecular target: PTPN2 (B16F10.4 cells) (Mus musculus)
Construct: HiBiT; host or cells: B16F10.4
Assay: HiBiT Degradation B16F10.4 PTPN2
Assay type: cell-based
Conditions: 24.0 hours

# Molecule, DC50
records = [
    ("CC(C)n1c(=O)n(C2CCC(=O)NC2=O)c2ccc(C3CCN(C(=O)Nc4cccc(CS(=O)(=O)N5CC[C@H](Nc6cccc(-c7sc(C(=O)O)c(OCC(=O)O)c7Cl)c6)CC5(C)C)c4)CC3)cc21 (single isomer, unassigned) [Example 87b]", "50 to 200 nM"),
]

For the next question, use this molecule.
The molecule listed as Cn1c(=O)n(C2CCC(=O)NC2=O)c2ccc(N3CCC(O)(CC(=O)Nc4cccc(CS(=O)(=O)N5CC[C@H](Nc6cccc(-c7sc(C(=O)O)c(OCC(=O)O)c7Cl)c6)CC5(C)C)c4)CC3)cc21 (some centres unmarked) has a reported DC50 of 50 to 200 nM
